B1: RTN1 (parent)
chain: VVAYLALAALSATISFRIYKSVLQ

Variants of: B1
Assay: protein stability index of a GFP-peptide fusion (GPS, HEK-293T) (PSI 1-6); higher = more stable;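 further: lentivirally expressed fusions sorted by FACS into six bins by GFP to DsRed ratio, PSI derived from sequencing read proportions per bin multiplied by bin number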
Settings: c terminus: a fixed tail appended
Items are presented alongside their recorded protein stability index.
Give only the figure.

A selection of reference data follows.
macromolecule_sequence | protein stability index
VVAYLAMAALSATISFRIYKSVLQ | 2.91
VVAYLALAALSATISFRIYKSSLQ | 2.57
EVAYLALAALSATISFRIYKSVLQ | 3.26
VVAYLALAALSAMISFRIYKSVLQ | 1.58
VVAYLALAALSATISFRIYKSVYQ | 3.05
VVAYLALAALSATISFRIIKSVLQ | 2.51
VVAYLALAALSATISFRIYKSILQ | 1.83
WVAYLALAALSATISFRIYKSVLQ | 1.72
VVLYLALAALSATISFRIYKSVLQ | 2.06
VVAYVALAALSATISFRIYKSVLQ | 1.63

Could you now look at the following variant, please?
Query: protein stability index lookup needed for `VVAYLALAALSATISFRIYESVLQ` , thanks.
Reply: 5.17

Ref: the supplement of paper PMC10567573
